Ref: the nanobody polyreactivity screen of Harvey et al. (2022)

- protocolSummary: yeast display, Sf9 membrane polyspecificity reagent, FACS + sequencing; frameworks hold sequencing errors
quantityKind: polyreactivity (PSR sort gate)

Use these answered entries as a reference point.
INSERT INTO assay_data (residuecodes, readoutvalue) VALUES
  ('QVQLVESGGGLVQAGGSLRLSCAASGITFGSNTMGLYRQAPGKERELVAVITWSGGSTYYADSVKGRFTISRDNAKNTVYLQMNSLIPEDTAVYDCAKPGEVNGQPPPQTESAYDYRGQGTQVTVSS', 'low polyreactivity'),
  ('QVQLQESGGGLVQASGSIFHEPNMGWYRQAPGKERELVAGISSGANTYYADSVKGRFTISRDNAKNTVYLQMNSLKPEDTAVYHCAVVVHLYTDLRYWGQDTQVTVSS', 'high polyreactivity'),
  ('QVQLVESGGGLVQAGGSLRLSCAASGRIFYYNAMGWYRQAPGKERELVAAITSVGSTNYADSVKGSFTISRDNAKNTVYLQMNSLKPEDTAVYYCARASAWYVTLVGKYTKYDYWGQGTQVTVSS', 'low polyreactivity'),
  ('QVQLVESGGGLVQAGGSLRLSCAASGFTFWTYAMGWYRQAPGKERELVAAISRSAGRTYYADSVKGRFTISRDNAKNTVYLQMNSLKPEDTAVYYCNARAGYVRYGYWGQGTQVTVSS', 'high polyreactivity'),
  ('QVQLQESGGSLVQAGGSLRLSCAASGSISYPRTMGWYRQAPGKEREFVAGIGVGGTTYYADSVKGRFTISRDNAKITVYLQMNSLKPEDTAVYYCARRRSGPSVLYYYWGQGTQVTVSS', 'low polyreactivity'),
  ('QVQLVESGGGLVQAGGSLRLSCAASGSTFIANAMGWYSQAPGKERELVAGITRGGSTYYADSVKGRFTISRDNAKHTVYLQMNSLNPEDTAVYYCATDLRSYYYQWTYYHWGQATQVTVSS', 'low polyreactivity'),
  ('QVQRVESAGGLVQAGGSLRLSCAPTGSIFSTNPMGWYSQSPGTERELVATITWSDGSTYYADSVKGRFTISRDNAKNTVYLQLNSLKPEDTAVYDCATPYKRDFYKGGDYWAQGTQVTVSS', 'low polyreactivity'),
  ('QVQLEESGGGLFQAGGSLRLSCAASGSTITRYAMGCYRQAPGKEREIVAVISRSGGSTYYADSVKGLFTISRDNAKNTVYLQINSLKPEDTAVYYCAAKYYGGRRSPYSYGYWGQGTQVTVSS', 'high polyreactivity'),
  ('QVQLVESGGGLVQAGGSLRLSCAASGNIFYVYLMGWYRQAPGKERELVASITSGASTYYADSVKGRFTISRDNAKNTVYLQMNSLKPEDTAVYYCAAEALGVAGDYSTLYIYDYWGQGTQVTVSS', 'low polyreactivity');

// returns reported polyreactivity (PSR sort gate) for input `QVQLVESGGGLVQAGGSLRLSCAASGSIFVPYAMGWYRQAPGKERELVAAISSSTASTYYADSVKGRFTISRDNAKNTVYLQMNRLKPEETAVYYFNAEQWDYGVRVAHYDYWGQGTQVTVSS`
low polyreactivity
